- Tested on: K-562 human leukemia cells
- test: MTS cell viability assay, K-562 leukemia cells
- Type: cell-based
- details: K562, K-562, 4 hours with compound, MTS, read-out: IC50 Values, Cancerous Cells, Leukemia K-562
metricName: IC50 (nM)

Below: 5 compounds and their reported IC50.
{"columns": ["compound", "IC50 (nM)"],
 "data": [
  ["O=C1C(=O)c2ccccc2C2=C1SCC(CN1CCC(CO)CC1)O2 (stereo not shown) [Compound 2]", 2840],
  ["O=C(Nc1ccccc1)OCC1CSC2=C(O1)c1ccccc1C(=O)C2=O (stereo not shown) [Compound 11]", 2730],
  ["O=C1C(=O)c2ccccc2C2=C1SCC(CN1CCN(c3ccc(F)cc3)CC1)O2 (stereo not shown) [Compound 5]", 2680],
  ["O=C1C(=O)c2ccccc2C2=C1SCC(CNCc1ccccc1)O2 (stereo not shown) [Compound 7]", 3890],
  ["CCOC(=O)N1CCN(CC2CSC3=C(O2)c2ccccc2C(=O)C3=O)CC1 (stereo not shown) [Compound 1]", 2930]
]}

[P] CC1CSC2=C(O1)c1cc(-c3ccccc3)ccc1C(=O)C2=O (stereo not shown) [Compound 14]
[Q] CC1CSC2=C(O1)c1cc(N3CCCCC3)ccc1C(=O)C2=O (stereo not shown) [Compound 15]
[R] O=C1C(=O)c2ccccc2C2=C1SCC(COc1cccnc1)O2 (stereo not shown) [Compound 17]
[S] CC(C)NC(=O)OCC1CSC2=C(O1)c1ccccc1C(=O)C2=O (stereo not shown) [Compound 12]
Incoming: Reorder: IC50, max to min. Your reply should list the labels following the order given in the request.
Outgoing: Q, P, R, S

###

- Test system: DU-145 human prostate carcinoma cells
- test: MTS cell viability assay, DU-145 prostate carcinoma cells
- Format: cell-based
- details: DU-145, 4 h, read-out: IC50 Values, Cancerous Cells, Prostate DU-145
metricName: IC50 (µM)
Use µM as the unit, but write only the number.

Incoming: Short answer please: IC50, DU-145 human prostate carcinoma cells, entry CCCC1CCOC2=C(S1)C(=O)C(=O)c1ccccc12 (stereo not shown)
Outgoing: 13.2

###

- Test system: A549 human lung carcinoma cells
- test: MTS cell viability assay, A549 lung carcinoma cells
- Type: cell-based
- details: A549, 4 h, read-out: IC50 Values, Cancerous Cells, Lung A549
metricName: IC50

Incoming: Item CCCC1CCOC2=C(S1)C(=O)C(=O)c1ccccc12 (stereo not shown) has what recorded IC50?
Outgoing: > 100 µM

###

- Tested on: NCM-460 normal colon epithelial cells
- test: MTS cell viability assay, NCM-460 normal colon cells
- Format: cell-based
- details: ratio of IC50 NCM-460 to IC50 DLD-1
- Protocol: Since β-lapachone induces cell death only in cancer cell lines and not in normal cells (Li et al., (2003) Proc Natl Acad Sci USA. 100(5): 2674-8), the present compounds were also tested in a panel of normal cell lines from a variety of tissues including NCM-460 normal colon epithelial cells. Cell viability was determined by measuring the activity of dehydrogenase enzymes in metabolically active cells using a tetrazolium compound, MTS. […]
# Fold Selectivity (NCM-460/DLD1) listing for each entry below
Enter the number alone.

Solved entries (count: 6):
{"columns": ["compound", "metricName", "readoutNumber"],
 "data": [
  ["O=C(Nc1ccccc1)OCC1CSC2=C(O1)c1ccccc1C(=O)C2=O (centres unmarked) [Compound 11]", "Fold Selectivity (NCM-460/DLD1)", 5.6],
  ["O=C1C(=O)c2ccccc2C2=C1SCC(CN1CCN(c3ccc(F)cc3)CC1)O2 (centres unmarked) [Compound 5]", "Fold Selectivity (NCM-460/DLD1)", 6.3],
  ["CCCC1CCOC2=C(S1)C(=O)C(=O)c1ccccc12 (centres unmarked) [Compound 13]", "Fold Selectivity (NCM-460/DLD1)", 1.4],
  ["O=C1C(=O)c2ccccc2C2=C1SCC(CNCCc1ccccc1)O2 (centres unmarked) [Compound 6]", "Fold Selectivity (NCM-460/DLD1)", 4.3],
  ["O=C1C(=O)c2ccccc2C2=C1SCC(COc1cccnc1)O2 (centres unmarked) [Compound 17]", "Fold Selectivity (NCM-460/DLD1)", 2.3],
  ["CC1CSC2=C(O1)c1cc(N3CCCCC3)ccc1C(=O)C2=O (centres unmarked) [Compound 15]", "Fold Selectivity (NCM-460/DLD1)", 1.0]
]}

Now examine the next entry.
Incoming: Fold Selectivity (NCM-460/DLD1) lookup needed for O=C1C(=O)c2ccccc2C2=C1SCC(CN1CCC(CO)CC1)O2 (centres unmarked) [Compound 2] , thanks.
Outgoing: 5.3

###

metricName: melting point

Here are 4 molecules together with their reported answers.
{"columns": ["molecule", "metricName", "result"],
 "data": [
  ["O=C1C(=O)c2ccccc2C2=C1SCC(CN1CCC(O)CC1)O2 (centres unmarked) [Compound 3]", "melting point", "98 to 100 °C"],
  ["COC(=O)C1(C)CSC2=C(O1)c1ccccc1C(=O)C2=O (centres unmarked)", "melting point", "188 to 189 °C"],
  ["CC(C)NC(=O)CN1CCN(CC2CSC3=C(O2)c2ccccc2C(=O)C3=O)CC1 (centres unmarked) [Compound 8]", "melting point", "85 to 87 °C"],
  ["COC(CN(C)CC1CSC2=C(O1)c1ccccc1C(=O)C2=O)OC (centres unmarked) [Compound 4]", "melting point", "80 to 82 °C"]
]}

The record that follows has no melting point shown yet.
Incoming: Can you share its melting point? I mean this molecule: O=C1C(=O)c2ccccc2C2=C1SCC(CN1CCC3(CC1)OCCO3)O2 (centres unmarked) [Compound 9]
Outgoing: 202 to 204 °C

###

- Test system: DU-145 human prostate carcinoma cells
- test: MTS cell viability assay, DU-145 prostate carcinoma cells
- Type: cell-based
- details: DU-145, 4 hours with compound, MTS, read-out: IC50 Values, Cancerous Cells, Prostate DU-145
pIC50: −log10 of the molar value.
metricName: pIC50

Use these answered entries as a reference point.
{"columns": ["compound", "pIC50"],
 "data": [
  ["CCOC(=O)N1CCN(CC2CSC3=C(O2)c2ccccc2C(=O)C3=O)CC1 (stereo not shown)", 5.40],
  ["O=C1C(=O)c2ccccc2C2=C1SCC(COc1cccnc1)O2 (stereo not shown)", 5.42],
  ["O=C1C(=O)c2ccccc2C2=C1SCC(CN1CCC(CO)CC1)O2 (stereo not shown)", 5.41]
]}

[a] CC1CSC2=C(O1)c1cc(-c3ccccc3)ccc1C(=O)C2=O (stereo not shown)
[b] O=C1C(=O)c2ccccc2C2=C1SCC(CN1CCN(c3ccc(F)cc3)CC1)O2 (stereo not shown)
Incoming: Lab note: check whether a or b shows the higher recorded pIC50. # reply format: chosen label
Outgoing: b
(b: 5.83, a: 5.42)

###

- System: DLD-1 human colon carcinoma cells
- test: MTS cell viability assay, DLD-1 colon carcinoma cells
- Assay type: cell-based
- details: DLD-1, 4 h, read-out: IC50 Values, Cancerous Cells, Colon DLD-1
metricName: IC50 (µM)
Write the number in µM without appending the unit.

Incoming: GET /values?readout=IC50&item= CCCC1CCOC2=C(S1)C(=O)C(=O)c1ccccc12 (stereo not shown) [Compound 13]
Outgoing: 12.9

###

- Tested on: A549 human lung carcinoma cells
- test: MTS cell viability assay, A549 lung carcinoma cells
- Assay type: cell-based
- details: A549, 4 hours with compound, MTS, read-out: IC50 Values, Cancerous Cells, Lung A549
metricName: IC50 (µM)

As a guide, the following entries are already answered.
{"columns": ["molecule", "IC50 (µM)"],
 "data": [
  ["O=C1C(=O)c2ccccc2C2=C1SCC(CNCCc1ccccc1)O2 (stereo not shown)", 12.9],
  ["O=C1C(=O)c2ccccc2C2=C1SCC(CN1CCC(CO)CC1)O2 (stereo not shown)", 11.7],
  ["O=C(Nc1ccccc1)OCC1CSC2=C(O1)c1ccccc1C(=O)C2=O (stereo not shown)", 5.44],
  ["CCOC(=O)N1CCN(CC2CSC3=C(O2)c2ccccc2C(=O)C3=O)CC1 (stereo not shown)", 4.77],
  ["O=C1C(=O)c2ccccc2C2=C1SCC(COc1cccnc1)O2 (stereo not shown)", 5.08]
]}

[a] O=C1C(=O)c2ccccc2C2=C1SCC(CNCc1ccccc1)O2 (stereo not shown)
[b] CC(C)NC(=O)OCC1CSC2=C(O1)c1ccccc1C(=O)C2=O (stereo not shown)
Incoming: Between the two listed entries a and b , which has its IC50 at the higher number? Choose, then provide that item's label.
Outgoing: a

###

Each record here notes measured Fold Selectivity (NCM-460/DLD1).
- System: NCM-460 normal colon epithelial cells
- test: MTS cell viability assay, NCM-460 normal colon cells
- Format: cell-based
- details: ratio of IC50 NCM-460 to IC50 DLD-1
- Procedure: Since β-lapachone induces cell death only in cancer cell lines and not in normal cells (Li et al., (2003) Proc Natl Acad Sci USA. 100(5): 2674-8), the present compounds were also tested in a panel of normal cell lines from a variety of tissues including NCM-460 normal colon epithelial cells. Cell viability was determined by measuring the activity of dehydrogenase enzymes in metabolically active cells using a tetrazolium compound, MTS. […]
Could you keep your reply to the number by itself?

# annotated cases, reported Fold Selectivity (NCM-460/DLD1) shown
{"columns": ["compound", "Fold Selectivity (NCM-460/DLD1)"],
 "data": [
  ["CC(C)NC(=O)OCC1CSC2=C(O1)c1ccccc1C(=O)C2=O (stereo not shown)", 2.7],
  ["O=C1C(=O)c2ccccc2C2=C1SCC(CNCc1ccccc1)O2 (stereo not shown)", 3.9],
  ["CC1CSC2=C(O1)c1cc(-c3ccccc3)ccc1C(=O)C2=O (stereo not shown)", 2.7]
]}

Shifting focus to the compound that follows.
Incoming: What does the data say about its Fold Selectivity (NCM-460/DLD1)? Entry: CCOC(=O)N1CCN(CC2CSC3=C(O2)c2ccccc2C(=O)C3=O)CC1 (stereo not shown)
Outgoing: 2.6
